EXPERIMENT_DESCRIPTION: physchem
ASSAY_SETUP: 60/40 ch3oh/h2o, Solubility, Oxamyl alone in solvent, alone; -6° C.
MEASURED_PARAMETER: solubility (mg/mL)

COMPOUND: CNC(=O)ON=C(SC)C(=O)N(C)C [Oxamyl]
VALUE: 397

----------
EXPERIMENT_DESCRIPTION: physchem
ASSAY_SETUP: 80/20 ch3oh/h2o, Solubility, both actives in solvent: Methomyl, with oxamyl, 2:1 wt.; 80/20 CH3OH/H2O; -6° C.

COMPOUND: CNC(=O)ON=C(C)SC [Methomyl]
solubility: 598 mg/mL

----------
EXPERIMENT_DESCRIPTION: physchem
ASSAY_SETUP: 40/60 ch3oh/h2o, Solubility, Oxamyl alone in solvent, alone; -6° C.

SMILES_STRING: CNC(=O)ON=C(SC)C(=O)N(C)C
solubility (mg/mL): 209

----------
EXPERIMENT_DESCRIPTION: physchem
ASSAY_SETUP: 40/60 ch3oh/h2o, Solubility, Oxamyl alone in solvent, alone; -6° C.
MEASURED_PARAMETER: solubility (mg/mL)

SMILES_STRING: CNC(=O)ON=C(SC)C(=O)N(C)C
MEASUREMENT_UNITS: mg/mL
VALUE: 209

----------
EXPERIMENT_DESCRIPTION: physchem
ASSAY_SETUP: 50/50 ch3oh/h2o, Solubility, Methomyl alone in solvent, alone; -6° C.
Method: Methomyl and oxamyl were added to various methanol:water solvent systems ranging from 100% CH3 OH to 40% CH3 OH:60% H2 O. The methomyl and oxamyl were dissolved separately or combined on a 1:1 weight ratio in the solvent systems at room temperature at a concentration exceeding the solubility limit at -6° C. Each sample was seeded with methomyl and/or oxamyl at -6° C. and allowed to crystallize until equilibrium was established. […]
MEASURED_PARAMETER: solubility (mg/mL)

COMPOUND: CNC(=O)ON=C(C)SC [Methomyl]
MEASUREMENT_UNITS: mg/mL
VALUE: 105

----------
EXPERIMENT_DESCRIPTION: physchem
ASSAY_SETUP: 50/50 ch3oh/h2o, Solubility, both actives in solvent: Methomyl, with oxamyl 1:1 wt.; 50/50 CH3OH/H2O; -6° C.

SMILES_STRING: CNC(=O)ON=C(C)SC
solubility / mg/mL: 237

----------
EXPERIMENT_DESCRIPTION: physchem
ASSAY_SETUP: 70/30 ch3oh/h2o, Solubility, both actives in solvent: Methomyl, with oxamyl, 1:2.5 wt.; 70/30 CH3OH/H2O; -6° C.
MEASURED_PARAMETER: solubility (mg/mL)

SMILES_STRING: CNC(=O)ON=C(C)SC
MEASUREMENT_UNITS: mg/mL
VALUE: 220

----------
EXPERIMENT_DESCRIPTION: physchem
ASSAY_SETUP: 80/20 ch3oh/h2o, Solubility, Methomyl alone in solvent, alone; -6° C.

SMILES_STRING: CNC(=O)ON=C(C)SC
solubility: 263 mg/mL

----------
EXPERIMENT_DESCRIPTION: physchem
ASSAY_SETUP: 80/20 ch3oh/h2o, Solubility, both actives in solvent: Methomyl, with oxamyl, 1:2.5 wt.; 80/20 CH3OH/H2O; -6° C.

SMILES_STRING: CNC(=O)ON=C(C)SC
MEASUREMENT_UNITS: mg/mL
solubility: 573

FYI, the data here is from patent US4032654A.
